System: AncSZ;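 also: 11-residue human phosphosite peptides and single-mutation variants displayed on the E. coli surface, counted by deep sequencing, each peptide's frequency after selection divided by its frequency in the unselected input library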;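 also: frequency after pTyr selection over input frequency; kinase dosed for 20-30% of maximal phosphorylation in three min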
Test Method Notes: phosphorylation enrichment, bacterial display (enrichment ratio); higher = better substrate or ligand; peptides without Tyr show the background
Please note: Condition met applies when phosphorylation enrichment is 1 or greater, and Condition not met applies otherwise.

Recorded results for 2 sequences are shown here.
Input Sequence	Assigned Class
PPDGEYFTLQI [TP53_Y327_L323P]	Condition met
LSQDVYEEDSF [RET_Y900_R897Q_YF]	Condition met

Form field: phosphorylation enrichment at least 1? Entry: ISKKRYAGLLF [POLD1_Y809]
Condition not met

Same question for IGEGTYGVLFK [CDK2_Y15_V18L_YF] please.
Condition not met

Same question for RQNRFYDAKVR [FKBP6_Y188] please.
Condition not met

Same question for NKHTTYTMEHI [ACTN1_Y708_N707T] please.
Condition not met

Same question for GLVFLYVEKNQ [PRELP_Y156_M157V] please.
Condition met

Same question for FVGGFYGGCNE [CTSC_Y352_YF] please.
Condition met

Same question for ANRNVYEVEPT [MEGF10_Y1075] please.
Condition not met
